# assayed_target: c-kit mutant D816V (Homo sapiens (Human), UniProt P10721, D816V/DEL694-753)
# Sequence (P10721 other isoform, or with tags, fused parts or gaps D816V/del 694-753): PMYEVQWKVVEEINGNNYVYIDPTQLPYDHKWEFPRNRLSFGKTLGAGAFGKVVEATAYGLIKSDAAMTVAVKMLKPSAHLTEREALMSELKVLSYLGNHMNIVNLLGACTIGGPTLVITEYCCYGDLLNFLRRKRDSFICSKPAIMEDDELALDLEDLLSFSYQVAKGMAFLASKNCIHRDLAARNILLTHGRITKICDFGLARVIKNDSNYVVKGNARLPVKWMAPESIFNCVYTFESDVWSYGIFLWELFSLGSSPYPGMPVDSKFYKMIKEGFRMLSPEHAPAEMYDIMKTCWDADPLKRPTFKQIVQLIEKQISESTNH
# procedure_summary: c-Kit mutant D816V biochemical assay (AlphaScreen kinase activity)
reported_endpoint: IC50

The examples below pair each entry with its known result.
Field request: IC50 | item: Cc1nc(C2CCN(c3ncnc4[nH]c(-c5ccnc(OC(C)C)c5)cc34)CC2)[nH]c1-c1ccccc1 [P-3078]
0.0001 to 1 µM

Field request: IC50 | item: Cc1nc(C2(C)CCN(c3ncnc4[nH]c(-c5ccc(C(N)=O)cc5)cc34)CC2)[nH]c1-c1ccc(C(F)F)cc1 [P-3239]
0.0001 to 1 µM

Field request: IC50 | item: COc1cc(-c2cc3c(N4CCC(c5nc(C)c(-c6ccccc6)[nH]5)CC4)ncnc3[nH]2)ccn1 [P-3003]
0.0001 to 1 µM

Continuing:
Field request: IC50 | item: CCOc1cccc(-c2[nH]c(C3CCN(c4ncnc5[nH]c(-c6ccc(C#N)cc6)cc45)CC3)nc2C)c1 [P-3025]
0.0001 to 1 µM

Field request: IC50 | item: COc1ccc(-c2[nH]c(C3(C)CCN(c4ncnc5[nH]c(-c6ccc(C#N)cc6)cc45)CC3)nc2C)cc1C [P-3053]
0.0001 to 1 µM

Field request: IC50 | item: Cc1nc(C2CCN(c3ncnc4[nH]c(-c5ccnc(N6CCOCC6)c5)cc34)CC2)[nH]c1-c1ccccc1 [P-3076]
0.0001 to 1 µM

Field request: IC50 | item: Cc1nc(C2(C)CCN(c3ncnc4[nH]c(-c5ccc(N6CCOCC6)nc5)cc34)CC2)[nH]c1-c1ccc(C(F)F)cc1 [P-3237]
0.0001 to 1 µM

Field request: IC50 | item: Cc1nc(C2CCN(c3ncnc4[nH]c(-c5cccc(Cl)c5)cc34)CC2)[nH]c1-c1ccccc1 [P-3082]
0.0001 to 1 µM

Field request: IC50 | item: COc1ccc(-c2[nH]c(C3(C)CCN(c4ncnc5[nH]c(-c6ccc(C#N)nc6)cc45)CC3)nc2C)cc1C [P-3250]
0.0001 to 1 µM

Field request: IC50 | item: CNC(=O)c1ccc(-c2cc3c(N4CCC(C)(c5nc(C)c(-c6ccc(OC)c(C)c6)[nH]5)CC4)ncnc3[nH]2)cn1 [P-3218]
0.0001 to 1 µM

Field request: IC50 | item: Cc1ccc(-c2[nH]c(C3CCN(c4ncnc5[nH]c(-c6ccc(F)cc6)cc45)CC3)nc2C)cc1 [P-3062]
0.0001 to 1 µM

Field request: IC50 | item: Cc1nc(C2CCN(c3ncnc4[nH]c(-c5ccc(C#N)cc5)cc34)CC2)[nH]c1-c1ccc2c(c1)OC(F)(F)O2 [P-3110]
0.0001 to 1 µM

Field request: IC50 | item: CCC1(c2nc(C)c(-c3ccc(OC)cc3)[nH]2)CCN(c2ncnc3[nH]c(-c4ccc(F)cc4)cc23)CC1 [P-3055]
0.0001 to 1 µM

Field request: IC50 | item: CNC(=O)c1ccc(-c2cc3c(N4CCC(C)(c5nc(C)c(-c6ccc(OC(F)F)cc6)[nH]5)CC4)ncnc3[nH]2)cn1 [P-3246]
0.0001 to 1 µM

Field request: IC50 | item: COc1cc(-c2cc3c(N4CCC(c5nc(C)c(-c6ccc(Cl)cc6)[nH]5)CC4)ncnc3[nH]2)ccn1 [P-3037]
0.0001 to 1 µM
